Target Of Assay: hERG (KCNH2) (Homo sapiens)
Sequence (Q12809 whole entry): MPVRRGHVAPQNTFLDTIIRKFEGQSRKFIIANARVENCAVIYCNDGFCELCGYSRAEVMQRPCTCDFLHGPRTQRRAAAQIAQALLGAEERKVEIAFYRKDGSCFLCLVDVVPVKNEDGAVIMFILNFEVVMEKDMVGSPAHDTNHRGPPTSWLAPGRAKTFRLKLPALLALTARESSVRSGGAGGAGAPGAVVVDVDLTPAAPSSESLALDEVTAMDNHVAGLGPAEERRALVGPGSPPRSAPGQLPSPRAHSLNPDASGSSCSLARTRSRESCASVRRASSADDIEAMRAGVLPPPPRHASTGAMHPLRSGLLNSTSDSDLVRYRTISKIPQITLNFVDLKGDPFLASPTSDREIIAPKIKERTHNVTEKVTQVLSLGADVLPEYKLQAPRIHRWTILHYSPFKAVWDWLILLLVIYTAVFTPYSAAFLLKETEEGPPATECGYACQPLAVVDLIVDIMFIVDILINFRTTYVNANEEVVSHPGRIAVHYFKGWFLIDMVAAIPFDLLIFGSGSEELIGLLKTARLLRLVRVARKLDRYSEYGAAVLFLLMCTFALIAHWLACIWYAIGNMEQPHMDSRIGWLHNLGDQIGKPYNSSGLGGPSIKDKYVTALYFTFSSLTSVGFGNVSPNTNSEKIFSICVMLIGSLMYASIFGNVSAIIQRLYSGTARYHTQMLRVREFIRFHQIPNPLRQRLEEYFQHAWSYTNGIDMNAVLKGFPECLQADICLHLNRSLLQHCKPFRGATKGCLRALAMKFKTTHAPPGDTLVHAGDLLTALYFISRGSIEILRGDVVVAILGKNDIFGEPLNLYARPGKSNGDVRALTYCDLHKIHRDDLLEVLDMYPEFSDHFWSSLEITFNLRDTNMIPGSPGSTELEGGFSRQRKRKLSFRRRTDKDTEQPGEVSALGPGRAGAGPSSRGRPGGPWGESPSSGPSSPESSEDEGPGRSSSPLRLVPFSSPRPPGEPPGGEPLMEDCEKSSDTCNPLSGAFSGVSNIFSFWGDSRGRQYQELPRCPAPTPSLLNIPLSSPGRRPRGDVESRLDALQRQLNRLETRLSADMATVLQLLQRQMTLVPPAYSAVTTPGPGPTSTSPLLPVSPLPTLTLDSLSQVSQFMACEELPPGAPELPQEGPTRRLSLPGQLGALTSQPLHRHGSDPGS
Assay Info: Displacement of [3H]dofetilide from human ERG channel expressed in HEK293 cells at 1 uM after 60 mins by liquid scintillation counting method
Type: cell-based
Test Context: HEK293 cells that express hERG, probe [3H]dofetilide
Outcome Measure: inhibition at 1 h, 1 µM

# Compound, Measurement
data = [
    ("c1ccc2c(c1)CCC(CN1CCC3(CCc4ccccc43)CC1)C2 (stereo unspecified)", "71%"),
]

====

Target Of Assay: Voltage-gated inwardly rectifying potassium channel KCNH2 (Homo sapiens, UniProt Q12809)
Assay Info: Displacement of [3H]dofetilide from human ERG channel expressed in HEK293 cells after 60 mins by liquid scintillation counting method
Classify: yes (1) when IC50 is strictly less than 1 µM; no (0) when IC50 is not.

# Molecule, Target Of Assay, Class Name
measured = [
    ("c1ccc2c(c1)CNC(CN1CCC3(CCc4ccccc43)CC1)C2 (configuration not stated)", "Voltage-gated inwardly rectifying potassium channel KCNH2 (Homo sapiens, UniProt Q12809)", "no (0)"),
    ("Cc1cc(F)ccc1C1CCN(CC2Cc3c(Cl)ccc(O)c3CN2)CC1 (configuration not stated)", "Voltage-gated inwardly rectifying potassium channel KCNH2 (Homo sapiens, UniProt Q12809)", "yes (1)"),
    ("Cc1cc(F)ccc1C1CCN(CC2Cc3ccccc3CN2)CC1 (configuration not stated)", "Voltage-gated inwardly rectifying potassium channel KCNH2 (Homo sapiens, UniProt Q12809)", "yes (1)"),
    ("CC(=O)N1Cc2ccccc2CC1CN1CCC2(CCc3ccccc32)CC1 (configuration not stated)", "Voltage-gated inwardly rectifying potassium channel KCNH2 (Homo sapiens, UniProt Q12809)", "yes (1)"),
    ("Oc1cccc2c1CNC(CN1CCC3(CCc4ccccc43)CC1)C2 (configuration not stated)", "Voltage-gated inwardly rectifying potassium channel KCNH2 (Homo sapiens, UniProt Q12809)", "yes (1)"),
    ("c1ccc2c(c1)CC(CN1CCC3(CCc4ccccc43)CC1)CO2 (configuration not stated)", "Voltage-gated inwardly rectifying potassium channel KCNH2 (Homo sapiens, UniProt Q12809)", "no (0)"),
    ("CN1C(=O)c2ccccc2CC1CN1CCC2(CCc3ccccc32)CC1 (configuration not stated)", "Voltage-gated inwardly rectifying potassium channel KCNH2 (Homo sapiens, UniProt Q12809)", "no (0)"),
]
